experimental-target: AChE (Electrophorus electricus)
Sequence (O42275 24-633): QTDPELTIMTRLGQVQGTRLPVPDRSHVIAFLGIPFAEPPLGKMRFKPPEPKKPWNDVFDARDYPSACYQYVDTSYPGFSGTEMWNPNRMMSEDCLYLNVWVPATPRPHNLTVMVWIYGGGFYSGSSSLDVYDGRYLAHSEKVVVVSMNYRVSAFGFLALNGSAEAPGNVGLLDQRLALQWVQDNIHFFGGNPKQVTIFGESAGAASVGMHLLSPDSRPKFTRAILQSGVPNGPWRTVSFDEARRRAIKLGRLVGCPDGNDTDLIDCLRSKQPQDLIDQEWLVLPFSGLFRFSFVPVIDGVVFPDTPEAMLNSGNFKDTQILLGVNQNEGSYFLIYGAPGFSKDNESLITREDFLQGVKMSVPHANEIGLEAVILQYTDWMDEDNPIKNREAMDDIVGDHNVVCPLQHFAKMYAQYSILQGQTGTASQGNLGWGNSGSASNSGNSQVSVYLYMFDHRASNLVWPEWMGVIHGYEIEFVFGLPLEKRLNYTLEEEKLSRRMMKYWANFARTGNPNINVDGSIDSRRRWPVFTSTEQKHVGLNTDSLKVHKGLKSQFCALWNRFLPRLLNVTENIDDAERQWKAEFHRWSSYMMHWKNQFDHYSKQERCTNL
assay-protocol: biochemical
Set-up: species or system electric eel
experimental-conditions: AChE from electric eel; mean of three independent determinations; read-out: IC50 (μM) ± SEM AChE
measured-property: IC50 (µM)
Give bare numbers, in µM.

Solved entries:
• Cn1c(NCCSSCCNc2c3c(nc4ccc(Cl)cc24)CCCC3)nc(-c2ccncc2)cc1=O [Compound 18c] = 2.24
• Cn1c(SCCNc2c3c(nc4cc(Cl)ccc24)CCCC3)nc(-c2ccncc2F)cc1=O [Compound 16d] = 1.89
• Cn1c(SCCNc2c3c(nc4ccc(Br)cc24)CCCC3)nc(-c2ccncc2F)cc1=O [Compound 16e] = 15.3

Now look at this entry.
// Cn1c(NCCSSCCNc2c3c(nc4cc(Cl)ccc24)CCCC3)nc(-c2ccncc2)cc1=O [Compound 18a] : IC50 value = 0.047
